# TARGET DESC: T1, RBFOX1 RRM (Homo sapiens, UniProt Q9NWB1 109-208)
# T1 sequence: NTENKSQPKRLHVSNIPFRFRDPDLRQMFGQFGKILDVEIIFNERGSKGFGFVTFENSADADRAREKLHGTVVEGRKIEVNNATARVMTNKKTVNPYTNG
# EXPERIMENTAL DETAILS: EMSA; HiTS-Eq, 1 nM pool, 10 min; buffer printed only for the single-RNA assays: 10 mM Tris pH 7.5, 150 mM NaCl, 3.4 mM EDTA, 0.001% NP-40, 30 C
# EXPERIMENTAL SETUP: tags: His6 N-terminal (pET28a); label: 5' 32P
In all, about 16,000 sequences were measured (“ka relative to ugcaugu”: median about 0.0091, highest 2% from about 0.032 on). The full list was thinned out, with the highest values kept by preference.
Reported binding signal values are given for each entry in this list.

Give the measured binding signal of GUCAUGC (DNA:RNA) RNA: GGGAGACCGGAAUUCAGAUUGUCCGUCAUGCUUAAAUCCCGUCGUAGCCACCA DNA 1: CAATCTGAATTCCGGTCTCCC DNA 2: TGGTGGCTACGACGGGATT .
0.0144 KA relative to UGCAUGU

For GCAUGCU (DNA:RNA) RNA: GGGAGACCGGAAUUCAGAUUGUCCGCAUGCUUUAAAUCCCGUCGUAGCCACCA DNA 1: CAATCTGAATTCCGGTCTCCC DNA 2: TGGTGGCTACGACGGGATT , what is its reported binding signal?
0.779 KA relative to UGCAUGU

Consider the binder shown here: GUAUGCU (DNA:RNA) RNA: GGGAGACCGGAAUUCAGAUUGUCCGUAUGCUUUAAAUCCCGUCGUAGCCACCA DNA 1: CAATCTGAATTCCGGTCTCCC DNA 2: TGGTGGCTACGACGGGATT What is its recorded binding signal?
0.018 KA relative to UGCAUGU

Would you mind telling me what binding signal value was observed for GUUAUGC (DNA:RNA) RNA: GGGAGACCGGAAUUCAGAUUGUCCGUUAUGCUUAAAUCCCGUCGUAGCCACCA DNA 1: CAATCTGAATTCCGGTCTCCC DNA 2: TGGTGGCTACGACGGGATT ?
0.0151 KA relative to UGCAUGU

***
Query (binder): UGAUGAA (DNA:RNA) RNA: GGGAGACCGGAAUUCAGAUUGUCCUGAUGAAUUAAAUCCCGUCGUAGCCACCA DNA 1: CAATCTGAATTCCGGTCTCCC DNA 2: TGGTGGCTACGACGGGATT ; field requested: binding signal
0.0191 KA relative to UGCAUGU
